Test: E. coli acrAB mutant growth effects, primary screen, E. coli filamentation inducers, strain DRC39, OD650, 48 h (AID 1179);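 further: screen aims at cell division blockers that make cells filament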
Details: E. coli DRC39 delta-acrAB growth, higher = more signal, called active from +8 up or from −8 down
Quick reference for z-score among some molecules

{"Smiles text": "Cc1ccc(S[C@]2(C(=O)NCCCN(C)C)CC(=O)N(Cc3ccccc3C(F)(F)F)[C@@H]2c2ccc(CO)cc2)cc1", "z-score": 0.164}
{"Smiles text": "CN(C)C(=O)[C@]1(Cc2ccccc2N=[N+]=[N-])N=C(c2ccc(OCCCO)cc2)O[C@@H]1c1ccccc1N=[N+]=[N-]", "z-score": 2.07}
{"Smiles text": "COc1ccccc1CN1C(=O)c2ccccc2[C@@H](C(=O)NC2CC2)[C@@H]1c1ccc(CO)cc1", "z-score": 0.119}
{"Smiles text": "COCCOC(=O)N1C(=O)[C@@]2(c3cc(C#CCC(C(=O)OC)C(=O)OC)ccc31)[C@H](C(=O)Nc1nc3ccccc3s1)[C@H]1C(=O)O[C@H](c3ccccc3)[C@H](c3ccccc3)N1[C@@H]2c1ccccc1OCCO", "z-score": 0.642}

Hello, the source for this data is PubChem BioAssay, in case you need it.
